pKi values, listed per item
Target: human LPA1 (Homo sapiens)
Construct: expressed in transfected cells
Sequence (Q92633 whole entry): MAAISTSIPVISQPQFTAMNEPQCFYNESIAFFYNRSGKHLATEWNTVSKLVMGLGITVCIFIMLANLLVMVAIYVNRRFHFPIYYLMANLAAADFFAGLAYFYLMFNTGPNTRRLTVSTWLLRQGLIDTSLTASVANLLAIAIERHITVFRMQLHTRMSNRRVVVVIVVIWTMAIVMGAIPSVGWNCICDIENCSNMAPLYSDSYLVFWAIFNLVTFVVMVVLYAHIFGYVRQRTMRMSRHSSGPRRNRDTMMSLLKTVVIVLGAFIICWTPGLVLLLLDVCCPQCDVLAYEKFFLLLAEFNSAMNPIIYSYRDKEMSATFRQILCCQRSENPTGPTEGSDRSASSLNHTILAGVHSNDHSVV
Experiment: Ca2+ mobilization assay, LPA1
Assay type: cell-based
Conditions: diastereomer study, RH7777 cells; read-out: LPA1 Ki (Table 2)
pKi: −log10 of the molar value.
READOUT_LABEL: pKi

>>> df
                                   molecule  readout_label  recorded_result
0  CCCCCCCCCCCCCCCC(=O)OC[C@@H](O)C[C@H](Br)P(=O)(O)O [Compound 1b]            pKi             6.12
1  CCCCCCCCCCCCCCCC(=O)OC[C@@H](O)C[C@@H](Br)P(=O)(O)O [Compound 1a]            pKi             6.56
2  CCCCCCCCCCCCCCCC(=O)OC[C@@H](O)CC(Br)P(=O)(O)O (mixture of isomers) [Compound 1]            pKi             6.09

====

Target: human LPA3 (Homo sapiens, UniProt Q9UBY5)
Sequence (Q9UBY5 1-353): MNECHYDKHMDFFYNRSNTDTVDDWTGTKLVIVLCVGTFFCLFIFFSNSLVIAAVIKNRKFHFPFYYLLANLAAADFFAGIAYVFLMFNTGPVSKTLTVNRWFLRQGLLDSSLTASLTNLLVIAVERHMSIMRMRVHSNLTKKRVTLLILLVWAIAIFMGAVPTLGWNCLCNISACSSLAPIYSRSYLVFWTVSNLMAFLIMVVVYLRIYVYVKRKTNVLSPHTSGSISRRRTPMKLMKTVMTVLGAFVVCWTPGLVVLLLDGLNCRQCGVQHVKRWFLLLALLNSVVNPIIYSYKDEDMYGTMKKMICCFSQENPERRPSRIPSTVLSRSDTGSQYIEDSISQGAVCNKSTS
Experiment: Ca2+ mobilization assay, LPA3
Settings: RH7777 cells stably expressing LPA3; agonist mode
pEC50: −log10 of the molar value.
READOUT_LABEL: pEC50

In [3]: df
Out[3]:
                                    compound  recorded_result
 0  CCCCCCCCCCCCCCCC(=O)OC[C@@H](O)CCP(=O)([O-])O.[Na+] [Compound 20b, reference compound]           < 4.52
 1  CCCCCCCCCCCCCCCC(=O)OC[C@@H](O)CC(Br)P(=O)(O)O (mixture of isomers) [Compound 1]           < 4.52
 2  CCCCCCCCC=CCCCCCCCC(=O)OCC(O)CC(O)P(=O)([O-])O.[Na+] (mixture of isomers) [Compound 22a, reference compound]             6.41
 3  CCCCCCCC/C=C\CCCCCCCC(=O)OCC(O)CCP(=O)(O)O (centres unmarked) [Compound 20a, reference compound]           < 5.77
 4  CCCCCCCCCCCCCCCC(=O)OCC(O)CC(O)P(=O)([O-])O.[Na+] (centres unmarked) [Compound 24b, reference compound]           < 4.52
 5  CCCCCCCC/C=C\CCCCCCCC(=O)OC[C@@H](O)CC(Cl)P(=O)(O)O (mixture of isomers) [Compound 18a]           < 5.57
 6  CCCCCCCCCCCCCCCC(=O)OCC(O)CC(O)P(=O)([O-])O.[Na+] (mixture of isomers) [Compound 22b, reference compound]           < 4.52
 7  CCCCCCCCCCCCCCCC(=O)OCC(O)COP(=O)(O)O (centres unmarked) [LPA (16:0), reference compound]             5.82
 8  CCCCCCCCCCCCCCCC(=O)OCC(O)CC(O)P(=O)([O-])O.[Na+] (centres unmarked) [Compound 24a, reference compound]           < 4.52
 9  CCCCCCCC/C=C\CCCCCCCC(=O)OC[C@@H](O)CC(Br)P(=O)(O)O (mixture of isomers) [Compound 19a]           < 5.61
10  CCCCCCCCCCCCCCCC(=O)OC[C@@H](O)CC(Cl)P(=O)(O)O (mixture of isomers) [Compound 18b]           < 4.52

====

Molecular target: human LPA1 (Homo sapiens)
Construct: expressed in transfected cells
Assay: Ca2+ mobilization assay, LPA1
Assay type: cell-based
Conditions: antagonist mode vs 200 nM LPA; PA = partial antagonist; read-out: LPA1 IC50
pIC50: −log10 of the molar value.
READOUT_LABEL: pIC50

                                   molecule  recorded_result
0  CCCCCCCCCCCCCCCC(=O)OC[C@@H](O)CCP(=O)([O-])O.[Na+] [Compound 20b, reference compound]           < 4.52
1  CCCCCCCC/C=C\CCCCCCCC(=O)OC[C@@H](O)CC(Cl)P(=O)(O)O (mixture of isomers) [Compound 18a]           < 4.52
2  CCCCCCCCCCCCCCCC(=O)OCC(O)COP(=O)(O)O (centres unmarked) [LPA (16:0), reference compound]           < 4.52
3  CCCCCCCCCCCCCCCC(=O)OCC(O)CC(O)P(=O)([O-])O.[Na+] (centres unmarked) [Compound 24b, reference compound]           < 4.52
4  CCCCCCCCCCCCCCCC(=O)OC[C@@H](O)CC(Br)P(=O)(O)O (mixture of isomers) [Compound 1]             5.82

====

Molecular target: human LPA3 (Homo sapiens)
Construct: expressed in transfected cells
Assay: Ca2+ mobilization assay, LPA3
Type: cell-based
Conditions: diastereomer study, RH7777 cells; read-out: LPA3 IC50 (Table 2)
pIC50: −log10 of the molar value.
pIC50 values, listed per item
READOUT_LABEL: pIC50

In [3]: df
Out[3]:
                                   molecule               assay_target  readout_label  recorded_result
0  CCCCCCCCCCCCCCCC(=O)OC[C@@H](O)C[C@@H](Br)P(=O)(O)O [Compound 1a]  human LPA3 (Homo sapiens)          pIC50             5.35
1  CCCCCCCCCCCCCCCC(=O)OC[C@@H](O)C[C@H](Br)P(=O)(O)O [Compound 1b]  human LPA3 (Homo sapiens)          pIC50             5.68

====

Biological target: recombinant ATX-HA (Homo sapiens, UniProt Q13822)
Construct: HA
Assay: Autotaxin assay (FS-3 hydrolysis)
Type: biochemical
Details: 10.0 μM; FS-3 substrate; preliminary single-dose screen
Inhibition (%) of autotaxin (ATX) phosphodiesterase activity values, listed per item
READOUT_LABEL: Inhibition (%) of autotaxin (ATX) phosphodiesterase activity

COMPOUND	UNITS_TEXT	RECORDED_RESULT
CCCCCCCCCCCCCCCC(=O)OCC(O)CC(O)P(=O)([O-])O.[Na+] (mixture of isomers) [Compound 22b, reference compound]	%	54.1
CCCCCCCCCCCCCCCC(=O)OC[C@@H](O)CCP(=O)([O-])O.[Na+] [Compound 20b, reference compound]	%	60.6
CCCCCCCC/C=C\CCCCCCCC(=O)OCC(O)CCP(=O)(O)O (stereo not shown) [Compound 20a, reference compound]	%	99.8
CCCCCCCCCCCCCCCC(=O)OCC(O)COP(=O)(O)O (stereo not shown) [LPA (16:0), reference compound]	%	38.1
CCCCCCCC/C=C\CCCCCCCC(=O)OC[C@@H](O)COP(=O)(O)O [LPA (18:1), reference compound]	%	88.4
CCCCCC/C=C\CCCCCCCC(=O)OCC1COP(=O)(O)C1 (stereo not shown) [2ccPA (16:1), 2-carba cyclic phosphatidic acid 16:1, reference compound]	%	78.5
CCCCCCCCC=CCCCCCCCC(=O)OCC(O)CC(O)P(=O)([O-])O.[Na+] (mixture of isomers) [Compound 22a, reference compound]	%	74.7
CCCCCCCCCCCCCCCC(=O)OCC(O)CC(O)P(=O)([O-])O.[Na+] (stereo not shown) [Compound 24b, reference compound]	%	43.4
CCCCCCCCCCCCCCCC(=O)OCC(O)CC(O)P(=O)([O-])O.[Na+] (stereo not shown) [Compound 24a, reference compound]	%	56.6
CCCCCCCC/C=C\CCCCCCCC(=O)OC[C@@H](O)CC(Br)P(=O)(O)O (mixture of isomers) [Compound 19a]	%	90.7

====

Target: human LPA5 (Homo sapiens)
Sequence (Q9H1C0 whole entry): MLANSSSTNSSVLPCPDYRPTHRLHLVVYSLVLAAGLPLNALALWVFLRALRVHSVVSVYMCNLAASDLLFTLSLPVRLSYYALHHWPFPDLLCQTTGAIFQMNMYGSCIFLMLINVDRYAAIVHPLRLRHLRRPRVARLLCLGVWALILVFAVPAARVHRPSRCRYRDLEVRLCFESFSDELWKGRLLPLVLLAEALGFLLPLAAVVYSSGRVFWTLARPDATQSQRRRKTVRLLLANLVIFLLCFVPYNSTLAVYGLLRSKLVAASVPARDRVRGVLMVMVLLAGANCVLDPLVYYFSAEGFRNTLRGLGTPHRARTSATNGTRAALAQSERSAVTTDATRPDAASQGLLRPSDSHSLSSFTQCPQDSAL
Assay: Ca2+ mobilization assay, LPA5 transiently transfected RH7777 cells
Settings: transiently transfected RH7777 cells; NS = non-saturated
READOUT_LABEL: EC50 (nM)

>>> df
                                   compound               assay_target  readout_label  units_text  recorded_result
0  CCCCCCCCCCCCCCCC(=O)OC[C@@H](O)CC(Br)P(=O)(O)O (mixture of isomers)  human LPA5 (Homo sapiens)           EC50          nM             1280

Values were extracted from patent US8722649B2.
